Source of measurements: patent US10517889B2

Experiment Description: Oligonucleotide concentration in tissues by LC-MS/MS after subcutaneous administration in beagle dogs (Example 8)
Type: in vivo
Condition Set: 30 mg/kg subcutaneous, 48 hours after the last dose, duodenum
Full length oligonucleotide, Duodenum overview
Reply with a number, then the unit it belongs to.

Entry 829994 (GGAGGCAGGGCCGCGA; 3-10-3 cEt gapmer, further chemistry not given here) [compound 829994] , Full length oligonucleotide, Duodenum reported as 23 µg/g

* * *

Tested on: human SMAD7 mRNA
Experiment Description: Antisense inhibition of human SMAD7 mRNA expression in Hep3B cells by 3-10-3 cEt gapmers, 10,000 nM, electroporation (Example 2)
Type: cell-based
Condition Set: Hep3B cells, electroporation with 10,000 nM antisense oligonucleotide, approximately 24 hours, SMAD7 mRNA by RT-PCR (RTS5062), relative to untreated control cells
Strand notation (5' to 3'): a small letter for the sugar, then the base; units joined by * are phosphorothioate-linked, units joined directly phosphodiester-linked; [ ] holds rarer units or linkages, { } end groups; capitals alone tell only the bases. k = constrained ethyl (cEt); [5mC] = 5-methylcytosine; d = 2'-deoxy (DNA)
# % Inhibition annotations
Kindly answer with a numeric value in %, unit omitted.

Sample answers from the record:
830074 (k[5mC]*kT*k[5mC]*dA*dG*dA*dT*d[5mC]*dA*dA*dA*dG*dG*kT*kA*kA; antisense) [compound 830074] = 43
830030 (antisense kA*k[5mC]*k[5mC]*dT*dA*dA*dT*dG*dT*d[5mC]*dA*dA*d[5mC]*kA*k[5mC]*kT) [compound 830030] = 36
830100 (kG*kG*kA*dG*d[5mC]*dT*d[5mC]*dA*dA*dA*d[5mC]*dT*dT*kT*kG*kA; antisense) [compound 830100] = 61
830185 (antisense kG*k[5mC]*k[5mC]*dA*d[5mC]*d[5mC]*dA*dA*d[5mC]*dG*dG*dT*dT*kG*k[5mC]*k[5mC]) [compound 830185] = 27
830045 (k[5mC]*k[5mC]*kG*dA*dT*dT*dG*dG*d[5mC]*dA*dG*dG*dT*kT*kA*kA; antisense) [compound 830045] = 47

The measured % Inhibition that 799392 (antisense kT*kA*kT*dT*dA*dG*dA*d[5mC]*d[5mC]*dG*dG*d[5mC]*dA*k[5mC]*k[5mC]*kA) [compound 799392] showed for human SMAD7 mRNA is 46

Entry 800008 (kG*kA*kA*d[5mC]*dA*dG*dA*d[5mC]*d[5mC]*dA*dG*dA*d[5mC]*k[5mC]*k[5mC]*kT; antisense) [compound 800008] , human SMAD7 mRNA data, % Inhibition value: 40

Fill in: human SMAD7 mRNA % Inhibition for 798682 (antisense kG*k[5mC]*kT*dA*dA*dG*dG*dA*dG*d[5mC]*dG*dA*dA*k[5mC]*kA*kT) [compound 798682] = 60

Entry 800024 (k[5mC]*kA*kA*dG*dG*dA*d[5mC]*dT*dA*dA*dG*dG*dA*kA*kG*kA; antisense) [compound 800024] : % Inhibition on human SMAD7 mRNA = 18

// returns % Inhibition for 830099 (kG*k[5mC]*k[5mC]*dT*dT*dT*dG*dG*dA*dA*dT*dT*dA*kG*kT*kA; antisense) [compound 830099] with human SMAD7 mRNA; value = 79

For 799261 (antisense kT*kT*kT*dG*d[5mC]*d[5mC]*d[5mC]*d[5mC]*dA*dA*dA*dA*d[5mC]*kT*k[5mC]*k[5mC]) [compound 799261] on human SMAD7 mRNA, measured % Inhibition was 52
